Organism: Homo sapiens
Assay Protocol: Selectivity for human adenosine A1 receptor over human adenosine A2A receptor
Property: Ratio Ki

// solved cases for Ratio Ki follow
C[C@@]1(O)[C@H](O)[C@@H](CO)O[C@H]1n1cnc2c(N[C@@H]3CCOC3)nc(Cl)nc21	> 6450
C[C@@]1(O)[C@H](O)[C@@H](CO)O[C@H]1n1cnc2c(N[C@@H]3CCOC3)ncnc21	> 4760

Here's the next entry for you.
[in] Find the recorded Ratio Ki belonging to `CNC(=O)OC[C@H]1O[C@@H](n2cnc3c(N[C@@H]4CCOC4)nc(Cl)nc32)[C@](C)(O)[C@@H]1O` and report it.
[out] > 20.9
